Recorded values, source PubChem BioAssay (NCI).

Tested on: NCI-H460 lung
Outcomes: label 1 for active, label 0 for inactive

| molecule | cat |
| --- | --- |
| Cc1nn(-c2ccccc2)c2c1CC(=O)Nc1ccccc1-2 | label 1 |
| CC1=CCC(OC(=O)C(C)(C)CCC(O)(C(=O)OC2(C(C)C)CCC3(C)OC3C2)C(C)C)(C(C)C)CC1 (stereo not drawn) | label 0 |
| COc1ccc2c(c1)c(-c1nc(-c3c[nH]c4ncccc34)cs1)cn2CCCCN1CCOCC1 | label 0 |
| COc1cc(C2c3cc4c(cc3[C@@H](NCCN3CCCCC3)C3COC(=O)[C@H]23)OCO4)cc(OC)c1O (stereo partly drawn) | label 1 |
| Cc1nc2sc(C(=O)Nc3cccc4ccccc34)c(N)c2cc1C(=O)/C=C/c1ccccc1 | label 1 |
| O=C(CCCCCCSc1nc(-c2ccccc2)cc(-c2ccccc2)n1)NO | label 0 |
| N=c1c2c(-c3ccccc3)c(-c3ccccc3)n(Cc3ccccc3)c2ncn1CCCO | label 0 |
| NC(=NC1CCCCCCC1)c1ccc(N2CCN(c3ccc(C(N)=NC4CCCCCCC4)cc3)CC2)cc1 | label 0 |
| COc1cc2c3c(n(CCCNCC(OC)OC)c(=O)c2cc1OC)-c1cc2c(cc1C3=O)OCO2 | label 1 |
| COC(=O)c1cc(-c2cc(OC)c(OC)c(OC)c2)[nH]c1N/N=C/c1c(Cl)cccc1Cl | label 0 |
| C=CC1=C[C@@H]2[C@@H]3O[C@]4(CC[C@H](O4)[C@@H](C)C[C@@H](O)C3=O)C[C@H](O)C3=NCC[C@@]32CC1 | label 1 |
| COc1ccn2c(C(C)=O)cc(C(=O)c3ccc4c(c3)Sc3ccccc3N4)c2c1 | label 1 |
| Cn1ccc2c(c1=O)C(=O)c1nccc3c1c-2nc1ccccc13 | label 0 |
